- Test system: M14
- experiment.description: NCI tumour cell line growth inhibition, 48 h
Activity calls are given as the source filed them. Cut-off read from the data, not from the text of the source: active = GI50 up to about 1.1 µM and inactive = higher.
observable: GI50

>  <compound>
COC(=O)/C=C(/OC)[C@H](C)[C@H](/C=C/c1csc(-c2csc(C(C)C)n2)n1)OC

>  <observed.result>
1.44 µM (inactive)

$$$$
>  <compound>
O=C(/C=C/C=C/c1ccccc1)c1ccccc1

>  <observed.result>
18 µM (inactive)

$$$$
>  <compound>
COc1cc(Cn2c3c(c4c(CN(C)C)c(O)ccc42)C(=O)c2ccccc2C3=O)cc(OC)c1

>  <observed.result>
17.2 µM (inactive)

$$$$

Note to self: GI50 recorded for COc1cc(C2c3cc4c(cc3OC(N3CCOCC3)C2C)OCO4)ccc1O (stereo not given) was 6.34 µM (inactive)

GET /value?item= CC1(C)OCC(C2OC(C)(C)OC2[C@H]2O[C@@]3(O)[C@H]4[C@H](C=CC[C@@H]42)[C@@H](OCc2ccccc2)[C@H](OCc2ccccc2)[C@H]3OCc2ccccc2)O1 (stereo not given in full) &field=GI50 returns 59.3 µM (inactive)

Given item COC(=O)c1oc([N+](=O)[O-])c(Cl)c1Cl , the value recorded as its GI50 is 7.28 µM (inactive)

The reported value for CC1(C)OC2COC(c3n[nH]c4c(=O)[nH]c(=O)[nH]c34)C2O1 (stereo not given) in terms of GI50 is > 100 µM (inactive)

---

- System: MDA-N
- experiment.description: NCI tumour cell line growth inhibition, 48 h
Activity calls are given as the source filed them. No stated cut-off is given here; in the data, active = GI50 up to about 1.1 µM and inactive = higher.
observable: GI50

>  <compound>
N#Cc1c(N)nc(-c2ccc(Cl)cc2)c2c1-c1ccccc1S(=O)(=O)CC2

>  <system.name>
MDA-N

>  <observed.result>
> 100 µM (inactive)

$$$$
>  <compound>
COc1c(O)c2c(c3cc(C(=O)N4CCc5c4c(O)c(OC)c4[nH]c(C(=O)N6CC7CC78C6=CC(=O)c6[nH]cc(C)c68)cc54)[nH]c13)CCN2C(N)=O (stereo not given) [CC-1065]

>  <system.name>
MDA-N

>  <observed.result>
0.237 µM (active)

$$$$
>  <compound>
CCOC(=O)c1csc(NC(=O)C(C)N2CCOCC2)n1 (stereo not given)

>  <system.name>
MDA-N

>  <observed.result>
> 100 µM (inactive)

$$$$
>  <compound>
COc1cccc(C=C2N=C(c3ccccc3)N(n3c(-c4ccccc4)nc4ccccc4c3=O)C2=O)c1

>  <system.name>
MDA-N

>  <observed.result>
48.3 µM (inactive)

$$$$
>  <compound>
C/C(=C1/N=C(c2ccccc2)OC1=O)c1cccs1

>  <system.name>
MDA-N

>  <observed.result>
> 100 µM (inactive)

$$$$

--- query ---
Entry c1ccc(Nn2c(CCCCCCCCc3nnc(COc4ccccc4)n3Nc3ccccc3)nnc2COc2ccccc2)cc1 , GI50 reported as 11 µM (inactive)

---

- Test system: LOX IMVI
- experiment.description: NCI tumour cell line growth inhibition, 48 h
Activity calls are given as the source filed them. No stated cut-off is given here; in the data, active = GI50 up to about 1.1 µM and inactive = higher.
Outcome (select one): yes (1) for active, no (0) for inactive

Examples with answers:
>  <molecule>
O=C(N/N=C\c1c(O)ccc2ccccc12)c1ccncc1

>  <qualitative.label>
yes (1)

$$$$
>  <molecule>
COc1ccc2c(=O)cc(-c3ccc(OC)c(OC)c3OC)oc2c1

>  <qualitative.label>
no (0)

$$$$
>  <molecule>
COC(=O)c1cc2c3c(c(C(C)=O)c(OC)c2[nH]1)NCC3

>  <qualitative.label>
no (0)

$$$$
>  <molecule>
Cc1ccc(C2CC(c3ccco3)=NN2c2ccccc2)o1 (stereo unspecified)

>  <qualitative.label>
no (0)

$$$$
>  <molecule>
O=C1C(/N=N/c2ccc(-c3nc4ccccc4o3)cc2)NC(=S)N1c1ccccc1 (stereo unspecified)

>  <qualitative.label>
no (0)

$$$$

Please indicate how the test categorized Nc1cc(=O)n(-c2ccccc2)c(=S)n1-c1ccccc1 .
no (0)

---

Recorded GI50 by entry
- Tested on: SF-539
- experiment.description: NCI tumour cell line growth inhibition, 48 h
The source made the active and inactive calls. No stated cut-off is given here; in the data, active = GI50 up to about 1.1 µM and inactive = higher.

Guide cases for GI50, answers given:
>  <molecule>
CC(=O)OC1=NN=C2COC(c3ccccc3OC(C)=O)=NN2C1

>  <GI50>
> 50 µM (inactive)

$$$$
>  <molecule>
CC12CCC(C(=O)O1)C(C)(C)O2 (stereo unspecified)

>  <GI50>
> 100 µM (inactive)

$$$$
>  <molecule>
O=C(N/C(=C\c1ccc(/C=C(\NC(=O)c2ccccc2)c2nc3ccccc3s2)cc1)c1nc2ccccc2s1)c1ccccc1

>  <GI50>
2.14 µM (inactive)

$$$$
>  <molecule>
COc1cc(C2c3cc4c(cc3OC(N3CCOCC3)C2C)OCO4)ccc1O (stereo unspecified)

>  <GI50>
11.3 µM (inactive)

$$$$

Consider now this further molecule.
// GI50 (SF-539) for CCOC(=O)CCCn1cc(C(=O)OC)nn1 = > 100 µM (inactive)

---

- Test system: DLD-1
- experiment.description: NCI tumour cell line growth inhibition, 48 h
Active and inactive are the calls of the source. Cut-off read from the data, not from the text of the source: active = GI50 up to about 1.1 µM and inactive = higher.
observable: GI50

// worked examples, GI50 included
>  <compound>
COC1=CC(=O)[C@]2(C)[C@H](C1=O)C(C)[C@H]2c1ccc(OC)cc1 (stereo partly specified)

>  <observed.result>
> 100 µM (inactive)

$$$$
>  <compound>
CCC1CN2CCc3cc(OC)c(OC)cc3C2CC1CC1c2cc(OC)c(OC)cc2CCN1C(=O)C(N)Cc1ccccc1.[O-][Cl+3]([O-])([O-])O (stereo unspecified)

>  <observed.result>
3.38 µM (inactive)

$$$$
>  <compound>
COC(=O)C1CC(c2ccc(Cl)cc2)=NO1 (stereo unspecified)

>  <observed.result>
> 100 µM (inactive)

$$$$

Sample CCOCc1cc(=O)c2c(OC)cc3c(c2o1)CCC(C)(C)O3 , system: DLD-1. Its GI50 is > 100 µM (inactive)

Tested on DLD-1, the item CNCc1cc(OC)ccc1-c1ccc(OC)c(OC)c1OC showed GI50 equal to > 100 µM (inactive)

Here COc1cc(Cl)cc(O)c(=O)c1OC was tested on DLD-1, and its GI50 came to 37.3 µM (inactive)

Entry O=C(Oc1ccc2c(-c3ccccc3)c(C(=O)Nc3ccc(Cl)cc3)c(=O)oc2c1)c1ccccc1 , tested on DLD-1, has a reported GI50 of > 100 µM (inactive)

Record for COC1=CC(=O)C2C(C1=O)C(c1ccc(OC)c(OC)c1)[C@H]2C (stereo partly specified) under target or system DLD-1: GI50 reported as 17.1 µM (inactive)

Fill in: DLD-1 GI50 for CCN(CC)CCCOC(=O)/C=C/c1c(C)[nH]c(=O)[nH]c1=O = > 625 µM (inactive)

Lab entry: DLD-1 assay, compound Cc1ccc(-n2c3nc(=O)n(C)c(=O)c-3nc3ccccc32)cc1 , GI50 = 27.6 µM (inactive)

Entry Cc1c(C#N)c(=O)[nH]c(=O)n1CCN1CCN(C(=O)NCCCCCCNC(=O)N2CCN(CCn3c(C)c(C#N)c(=O)[nH]c3=O)CC2)CC1 , tested on DLD-1, has a reported GI50 of > 100 µM (inactive)

GI50 of Nc1cc(=O)n(-c2ccccc2)c(=S)n1-c1ccccc1 , assay on DLD-1, is > 100 µM (inactive)

The compound SCc1ccc(-c2ccc(CS)cc2)cc1 , when measured on DLD-1, yielded GI50 of 17 µM (inactive)

---

This section presents compounds with their documented GI50 values.
- System: MOLT-4
- experiment.description: NCI tumour cell line growth inhibition, 48 h
Activity calls are given as the source filed them. No stated cut-off is given here; in the data, active = GI50 up to about 1.1 µM and inactive = higher.

Example compounds with recorded GI50:
>  <compound>
CC(=O)N(CN1C(=O)CCC1C(=O)O)c1ccc(C)cc1 (stereo unspecified)

>  <GI50>
> 100 µM (inactive)

$$$$
>  <compound>
O=C(/C=C/C=C/c1ccccc1)c1ccccc1

>  <GI50>
14.6 µM (inactive)

$$$$
>  <compound>
CCCNCC(=O)O[C@]1(CC)C(=O)OCc2c1cc1n(c2=O)Cc2cc3ccccc3nc2-1

>  <GI50>
< 0.01 µM (active)

$$$$
>  <compound>
C[N+](C)([O-])CCCNc1ccnc2cccc([N+](=O)[O-])c12

>  <GI50>
20.2 µM (inactive)

$$$$
>  <compound>
N#CCCN(CCC#N)c1ccc(/C=C2\N=C(c3cc([N+](=O)[O-])ccc3Cl)N(S(=O)(=O)c3ccccc3)C2=O)cc1

>  <GI50>
> 100 µM (inactive)

$$$$

With those in mind, consider the next compound.
Tested system MOLT-4; GI50 recorded for COc1cccc(/C=C\c2ccc(O)cc2)c1 was 3.6 µM (inactive)

---

- Tested on: Malme-3M
- experiment.description: NCI tumour cell line growth inhibition, 48 h
The source made the active and inactive calls. No stated cut-off is given here; in the data, active = GI50 up to about 1.1 µM and inactive = higher.
Please reply with one of these outcomes: active, inactive

>  <compound>
O=C1[C@@H]2[C@@H](c3ccccc3)[C@]2(Cl)C(=O)[C@H]2[C@H](c3ccccc3)[C@@]12Cl

>  <system.name>
Malme-3M

>  <qualitative.label>
inactive

$$$$

Please indicate how the test categorized CC(C)(C)OC(=O)N(CCNS(=O)(=O)c1cccc2cnccc12)CCC(=O)ON1C(=O)CCC1=O .
inactive

Hey, what did the test say about CN(C)/C=N\c1cccc2c1NSN2 ?
inactive

GET /call?item= C=CC(=O)N1C/C(=C\c2ccc(Cl)cc2)C(=O)/C(=C/c2ccc(Cl)cc2)C1 returns the recorded outcome of this test.
active

Test call, this compound: O=[N+]([O-])C1(C2([N+](=O)[O-])CCCC2)CCCC1
inactive

Look up the recorded call for NC(=O)c1nnc2ccc(F)cc2c1N in this test.
inactive

Please indicate how the test categorized C/C(=N/NC(=S)N1CCCCC1)c1cccc(/C(C)=N\NC(=S)N2CCCCC2)n1 .
inactive

Can you look up the reported call for COc1ccc(S(=O)(=O)N2C(=O)CCC2C(=O)NN)cc1 (configuration not stated) for me?
inactive

Each compound tested received a call. Report the one for CN(C)CCCNC(=O)c1c(-c2cccnc2)cnc2ccccc12 .
inactive
